System: TK-10 renal
assayProcedure: NCI tumour cell line growth inhibition, 48 h
Entries and their TGI values follow.

Worked examples, 5 molecules total:
molecule	TGI
CCC(=C/[C@H](C)C/C=C/C(C)=C/[C@@H](C)C(=O)[C@@H](C)[C@H](O)[C@@H](C)CC)/C=C/[C@@H]1OC(=O)C=C[C@@H]1C	10.7 µM
COc1cc(CCCl)c(CC2=NCCc3cc(OC)c(OC)cc32)cc1OC	> 100 µM
CC1=Nn2c(nnc2-c2ccc(Cl)cc2)NC(C)(C)C1	> 100 µM
O=C1CC2(CCC(O)(c3cccc4ccccc34)C(C(=O)c3cccc4ccccc34)C2)C(=O)c2ccccc2N1 (centres undefined)	> 100 µM
O=C1[C@H]2ON(c3ccccc3)C(c3ccc(Cl)cc3Cl)[C@H]2C(=O)N1c1ccc(Cc2ccc(N3C(=O)[C@@H]4ON(c5ccccc5)C(c5ccc(Cl)cc5Cl)[C@@H]4C3=O)cc2)cc1 (some centres undefined)	> 100 µM

q: Look up TGI for this molecule: "Cn1c2ccccc2c2ccc3c(c21)C(=O)C=CC3=O"
a: 12.2 µM

q: Consider next the molecule CC(=O)/C=C\C1CC2C=CC1C2 (centres undefined) in the same way.
a: > 100 µM

q: // repeat for CC1=C(O)C(=O)C2C(=O)C1C(C)C2c1ccc(C)cc1 (centres undefined) and report
a: > 100 µM

q: And what about the molecule C=CCOC(C)n1c(C)c(Br)c(=O)[nH]c1=O (centres undefined) ?
a: > 100 µM

====

System: U251 CNS
assayProcedure: NCI tumour cell line growth inhibition, 48 h
property: TGI

> print(dat)
                                   molecule  testvalue
1  O=C1C(c2ccccc2)=[N+]([O-])c2cc([N+](=O)[O-])c(/C(Cl)=C/c3ccccc3)cc21    39.7 µM
2            Cc1cc(I)cc(CN(C)CCN2CCOCC2)c1O   > 100 µM
3  CCC(CN(C)C)C(=O)c1ccco1 (centres undefined)   > 100 µM
4  [N-]=[N+]=NCCCn1c2c(c3ccccc3c1=O)C(=O)c1cc(Br)ccc1-2   > 100 µM
5  CC(C)(C)OC(=O)NCC(c1c[nH]c2ccc(Br)cc12)c1c[nH]c2ccc(Br)cc12    19.1 µM

q: Given the entry "O=C1Nc2ccccc2C1(c1c[nH]c2ccccc12)c1c[nH]c2ccccc12" , report its measured TGI.
a: 7.49 µM

q: Request: COC1=C(OC)C23CCc4ccc(OC)c(O)c4C2(CCN3)CC1=O (centres undefined)
a: > 100 µM

====

System: CAKI-1 renal
assayProcedure: NCI tumour cell line growth inhibition, 48 h
The reader will find reported TGI values listed item by item below.
Express the result in µM but write the number alone.

q: Find the recorded TGI belonging to "O=[N+]([O-])c1cccc(-c2ncnc(-c3cccc([N+](=O)[O-])c3)n2)c1" and report it.
a: 93.3

q: # repeat for CC(=O)NC1=C(C)C(=O)c2c(nc3n2CCC3OC(=O)c2ccccc2)C1=O (stereo unspecified)
a: 4.78

q: Another compound to check: O=C1OC(=O)C2=C1C(c1cccs1)C=C(c1cccnc1)N2c1ccncc1 (stereo unspecified)
a: 29.7

====

Test system: SK-MEL-5 melanoma
assayProcedure: NCI tumour cell line growth inhibition, 48 h
property: TGI

Worked set:
> print(dat)
                                   compound    targetundertest  testvalue
1  CCc1c(C)[nH]c2c1/C(=N/N=C1\CCCc3[nH]c(C)c(CC)c31)CCC2  SK-MEL-5 melanoma    27.6 µM
2  COc1cc(NC(=O)c2ccc(C(F)(F)F)nc2Nc2ccc(Cl)cc2C)cc(OC)c1OC  SK-MEL-5 melanoma    14.9 µM
3                           SCCCSCCSCCCSCCS  SK-MEL-5 melanoma   > 100 µM

q: Recorded TGI for "C=C=C(C)C(=O)N(C(C)C)C(C)C" , please?
a: > 100 µM

q: Lookup "Cc1ccc(C)c(COc2cc(NC(=O)c3ccc4c(c3)OCO4)ccc2N(C)S(C)(=O)=O)c1"
a: 1.67 µM

q: // query: CCOc1ccc(NC(=O)/C(=N\N)C(C(=O)OC)c2nc3ccc(Cl)cc3[nH]c2=O)cc1 (configuration not stated)
a: > 100 µM

q: Can you check "O=C1OC(c2ccccc2)=N/C1=C\c1ccc(F)cc1" next?
a: > 100 µM

Cited source for all entries: PubChem BioAssay (NCI)
